Give IC50 for every item shown.
Target: BRD4 bromo domain 2 [BRD4(2)] (Homo sapiens, UniProt O60885)
Construct: N-terminally His6-tagged BRD4(2) (amino acids 357-445)
Assay: BRD4/acetylated peptide H4 binding assay (TR-FRET), BRD4 bromo domain 2
Conditions: inhibition of BRD4(2)/Ac-H4 peptide interaction
Source text: Protein-Protein Interaction Assay: BRD4/Acetylated Peptide H4 Binding Assay To assess the BRD4(2) binding strength of the substances described in this application, the ability thereof to inhibit the interaction between BRD4(2) and acetylated histone H4 in a dose-dependent manner was quantified. […]
Numbers only; they are read as nM.

query: Endpoint output: IC50 of COc1ccc(S(=O)(=O)N2CCN(C)CC2)cc1Nc1ccc2c(n1)N(C1CCN(C)CC1)[C@H](C)C(=O)N2C [Example 46] . Value?
result: 69

query: Endpoint output: IC50 of C[C@@H]1C(=O)N(C)c2ccc(Nc3cccc(C(=O)N4CCN(C)CC4)c3)nc2N1C1CCCC1 [Example 1] . Value?
result: 55

query: Endpoint output: IC50 of C[C@@H]1C(=O)N(C)c2ccc(Nc3cccc(C(=O)N[C@H]4CC[C@H](N5CCN(CC6CC6)CC5)CC4)c3)nc2N1C1CCCC1 [Example 5] . Value?
result: 59

query: Endpoint output: IC50 of COCCN1c2nc(Nc3cccc(S(=O)(=O)N4CCOCC4)c3)ccc2N(C)C(=O)C1C (racemic) [Example 49] . Value?
result: 159

query: Endpoint output: IC50 of COc1ccc(Nc2ccc3c(n2)N(C2CCOCC2)[C@H](C)C(=O)N3C)cc1C(=O)NC1CCC(N2CCC(F)(F)CC2)CC1 (stereo partly shown) [Example 89] . Value?
result: 497

query: Endpoint output: IC50 of COCCN1c2nc(Nc3cccc(S(=O)(=O)N4CCOCC4)c3)ccc2N(C)C(=O)[C@@H]1C (stereo in doubt) [Example 112] . Value?
result: 57

query: Endpoint output: IC50 of C[C@@H]1C(=O)N(C)c2ccc(Nc3cccc(C(=O)NCCN4CCN(C)CC4)c3)nc2N1C1CCCCC1 [Example 84] . Value?
result: 155

From: patent US20160176867A1
